- target.system: Rho-MatB (Rhodopseudomonas palustris, UniProt Q6ND88, C106A/K488A/Q457C/R286C)
- Sequence (Q6ND88 1-503 C106A/R286C/Q457C/K488A): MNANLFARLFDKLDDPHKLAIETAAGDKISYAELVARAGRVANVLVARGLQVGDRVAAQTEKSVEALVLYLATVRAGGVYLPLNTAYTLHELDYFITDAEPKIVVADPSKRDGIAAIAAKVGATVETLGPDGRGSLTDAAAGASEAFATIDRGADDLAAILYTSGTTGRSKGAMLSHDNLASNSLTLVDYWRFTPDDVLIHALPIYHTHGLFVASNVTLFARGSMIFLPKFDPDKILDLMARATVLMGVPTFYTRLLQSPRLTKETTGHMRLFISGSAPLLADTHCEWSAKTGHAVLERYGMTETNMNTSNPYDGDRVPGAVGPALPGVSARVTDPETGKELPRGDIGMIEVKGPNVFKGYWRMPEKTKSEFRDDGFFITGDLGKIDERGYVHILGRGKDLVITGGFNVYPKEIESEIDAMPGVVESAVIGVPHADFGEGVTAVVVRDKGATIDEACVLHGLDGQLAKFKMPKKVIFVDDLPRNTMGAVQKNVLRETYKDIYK
- method: Fluorescence of Rho-MatB with various ligands
- Assay type: binding
- condition.parameters: in words
recorded.metric: effect on the fluorescence of Rho-MatB

1. O=C(O)CC(=O)O [malonate]; no effect
2. CC(C)(COP(=O)(O)OP(=O)(O)OC[C@H]1O[C@@H](n2cnc3c(N)ncnc32)[C@H](O)[C@@H]1OP(=O)(O)O)[C@@H](O)C(=O)NCCC(=O)NCCS; no effect

---

fluorescence ratio of ATP titration for assorted compounds
- target.system: Rho-MatB (Rhodopseudomonas palustris, UniProt Q6ND88, C106A/K488A/Q457C/R286C)
- method: ATP titration of Rho-MatB in the presence of other nucleotides
- Format: binding
- condition.parameters: 1 μM Rho-MatB titrated with ATP in presence of 100 μM of the named nucleotide
recorded.metric: fluorescence ratio of ATP titration

1) Nc1ncnc2c1ncn2[C@@H]1O[C@H](COP(=O)(O)OP(=O)(O)NP(=O)(O)O)[C@@H](O)[C@H]1O [AMP-PNP, adenosine 5′-(β,γ-imido)triphosphate]; 2.4
2) Nc1ncnc2c1ncn2[C@@H]1O[C@H](COP(=O)(O)OP(=O)(O)O)[C@@H](O)[C@H]1O; 3.0
3) Nc1ncnc2c1ncn2[C@H]1C[C@H](O)[C@@H](COP(=O)(O)OP(=O)(O)OP(=O)(O)O)O1; 2.3
4) Nc1ncnc2c1ncn2[C@@H]1O[C@H](CO[P@](=O)(O)O[P@](=O)(O)O[P@@](=O)(O)S)[C@@H](O)[C@H]1O [ATPγS, adenosine 5′-(γ-thio)triphosphate]; 1.9
